biological target: Mu-type opioid receptor (Cavia porcellus); assay: Agonist activity at mu opioid receptor in guinea pig ileum assessed as inhibition of electrically-stimulated muscle contraction
Sequence (P97266 whole entry): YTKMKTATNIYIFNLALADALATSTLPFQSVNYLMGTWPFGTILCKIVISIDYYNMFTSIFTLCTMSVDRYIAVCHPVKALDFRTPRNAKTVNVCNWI
measurementKind: IC50

{"chemicalString": "C=C(C(N)=O)[C@@H](NC(=O)[C@H](Cc1c[nH]c2ccccc12)NC(=O)[C@@H]1CCCN1C(=O)[C@@H](N)Cc1ccc(O)cc1)c1ccc(F)cc1", "reportedMeasurement": "0.0315 µM"}
{"chemicalString": "C=C(C(N)=O)[C@@H](NC(=O)[C@H](Cc1c[nH]c2ccccc12)NC(=O)[C@@H]1CCCN1C(=O)[C@@H](N)Cc1ccc(O)cc1)c1ccccc1", "reportedMeasurement": "0.00681 µM"}
{"chemicalString": "C=C(C(N)=O)[C@@H](NC(=O)[C@H](Cc1c[nH]c2ccccc12)NC(=O)[C@@H]1CCCN1C(=O)[C@@H](N)Cc1ccc(O)cc1)c1ccc(Cl)cc1", "reportedMeasurement": "0.0153 µM"}
{"chemicalString": "C=C(C(N)=O)[C@@H](NC(=O)[C@H](Cc1c[nH]c2ccccc12)NC(=O)[C@@H]1CCCN1C(=O)[C@@H](N)Cc1ccc(O)cc1)c1ccc2ccccc2c1", "reportedMeasurement": "0.0182 µM"}
{"chemicalString": "C=C(C(N)=O)[C@@H](NC(=O)[C@H](Cc1c[nH]c2ccccc12)NC(=O)[C@@H]1CCCN1C(=O)[C@@H](N)Cc1ccc(O)cc1)c1ccccc1Cl", "reportedMeasurement": "0.0166 µM"}
{"chemicalString": "C=C(C(N)=O)[C@@H](NC(=O)[C@H](Cc1c[nH]c2ccccc12)NC(=O)[C@@H]1CCCN1C(=O)[C@@H](N)Cc1ccc(O)cc1)c1cccc2ccccc12", "reportedMeasurement": "0.0339 µM"}
{"chemicalString": "C=C(C(N)=O)[C@@H](NC(=O)[C@H](Cc1c[nH]c2ccccc12)NC(=O)[C@@H]1CCCN1C(=O)[C@@H](N)Cc1ccc(O)cc1)c1ccc2c(c1)OCO2", "reportedMeasurement": "0.0143 µM"}
{"chemicalString": "C=C(C(N)=O)[C@@H](NC(=O)[C@H](Cc1c[nH]c2ccccc12)NC(=O)[C@@H]1CCCN1C(=O)[C@@H](N)Cc1ccc(O)cc1)c1cccc(Cl)c1", "reportedMeasurement": "0.00766 µM"}
{"chemicalString": "C=C(C(N)=O)[C@@H](NC(=O)[C@H](Cc1c[nH]c2ccccc12)NC(=O)[C@@H]1CCCN1C(=O)[C@@H](N)Cc1ccc(O)cc1)c1ccco1", "reportedMeasurement": "0.00292 µM"}
{"chemicalString": "C=C(C(N)=O)[C@@H](NC(=O)[C@H](Cc1c[nH]c2ccccc12)NC(=O)[C@@H]1CCCN1C(=O)[C@@H](N)Cc1ccc(O)cc1)c1ccc(OC)cc1", "reportedMeasurement": "0.0842 µM"}
{"chemicalString": "C=C(C(N)=O)[C@@H](NC(=O)C(=C)[C@@H](NC(=O)[C@@H]1CCCN1C(=O)[C@@H](N)Cc1ccc(O)cc1)c1ccccc1)c1ccccc1", "reportedMeasurement": "0.0381 µM"}
{"chemicalString": "C=C(C(N)=O)[C@@H](NC(=O)[C@H](Cc1c[nH]c2ccccc12)NC(=O)[C@@H]1CCCN1C(=O)[C@@H](N)Cc1ccc(O)cc1)c1ccoc1", "reportedMeasurement": "0.00394 µM"}
{"chemicalString": "C=C(C(=O)N[C@@H](Cc1ccccc1)C(N)=O)[C@@H](NC(=O)[C@@H]1CCCN1C(=O)[C@@H](N)Cc1ccc(O)cc1)c1ccccc1", "reportedMeasurement": "0.0209 µM"}

====

test: Half life in mouse brain homogenates; assay type: ADME, tissue-based; details: brain homogenate

{"chemicalString": "C=C(C(N)=O)[C@@H](NC(=O)[C@H](Cc1c[nH]c2ccccc12)NC(=O)[C@@H]1CCCN1C(=O)[C@@H](N)Cc1ccc(O)cc1)c1ccccc1", "uom": "h", "half-life": 1.04}
{"chemicalString": "C=C(C(N)=O)[C@@H](NC(=O)[C@H](Cc1c[nH]c2ccccc12)NC(=O)[C@@H]1CCCN1C(=O)[C@@H](N)Cc1ccc(O)cc1)c1ccoc1", "uom": "h", "half-life": 1.47}
{"chemicalString": "C=C(C(N)=O)[C@@H](NC(=O)[C@H](Cc1c[nH]c2ccccc12)NC(=O)[C@@H]1CCCN1C(=O)[C@@H](N)Cc1ccc(O)cc1)c1ccco1", "uom": "h", "half-life": 1.43}
{"chemicalString": "C=C(C(N)=O)[C@@H](NC(=O)[C@H](Cc1c[nH]c2ccccc12)NC(=O)[C@@H]1CCCN1C(=O)[C@@H](N)Cc1ccc(O)cc1)c1cccc(Cl)c1", "uom": "h", "half-life": 1.5}

====

# pEC50 per entry
target: Mu-type opioid receptor (Homo sapiens, UniProt P35372); assay: Agonist activity at mu opioid receptor expressed in HEK293 cells assessed as inhibition of forskolin-induced cAMP accumulation after 30 mins by liquid scintillation counter
Sequence (P35372 whole entry): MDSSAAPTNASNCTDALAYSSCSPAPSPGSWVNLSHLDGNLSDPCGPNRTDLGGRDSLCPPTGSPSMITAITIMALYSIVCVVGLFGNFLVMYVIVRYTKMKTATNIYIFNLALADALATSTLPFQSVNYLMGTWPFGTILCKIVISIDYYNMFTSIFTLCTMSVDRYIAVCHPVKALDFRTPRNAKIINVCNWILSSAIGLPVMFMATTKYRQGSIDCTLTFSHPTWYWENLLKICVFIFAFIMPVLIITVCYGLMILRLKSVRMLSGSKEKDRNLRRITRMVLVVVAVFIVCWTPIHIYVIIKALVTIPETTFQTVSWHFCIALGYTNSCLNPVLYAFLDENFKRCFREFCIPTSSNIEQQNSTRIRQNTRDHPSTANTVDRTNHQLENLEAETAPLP
pEC50: −log10 of the molar value.

{"chemicalString": "C=C(C(N)=O)[C@@H](NC(=O)[C@H](Cc1c[nH]c2ccccc12)NC(=O)[C@@H]1CCCN1C(=O)[C@@H](N)Cc1ccc(O)cc1)c1cccc(Cl)c1", "pEC50": 9.14}
{"chemicalString": "C=C(C(N)=O)[C@@H](NC(=O)[C@H](Cc1c[nH]c2ccccc12)NC(=O)[C@@H]1CCCN1C(=O)[C@@H](N)Cc1ccc(O)cc1)c1ccco1", "pEC50": 10.48}
{"chemicalString": "C=C(C(N)=O)[C@@H](NC(=O)[C@H](Cc1c[nH]c2ccccc12)NC(=O)[C@@H]1CCCN1C(=O)[C@@H](N)Cc1ccc(O)cc1)c1ccc(OC)cc1", "pEC50": 7.96}
{"chemicalString": "C=C(C(=O)N[C@@H](Cc1ccccc1)C(N)=O)[C@@H](NC(=O)[C@@H]1CCCN1C(=O)[C@@H](N)Cc1ccc(O)cc1)c1ccccc1", "pEC50": 7.44}
{"chemicalString": "C=C(C(N)=O)[C@@H](NC(=O)[C@H](Cc1c[nH]c2ccccc12)NC(=O)[C@@H]1CCCN1C(=O)[C@@H](N)Cc1ccc(O)cc1)c1ccccc1", "pEC50": 9.80}
{"chemicalString": "C=C(C(N)=O)[C@@H](NC(=O)C(=C)[C@@H](NC(=O)[C@@H]1CCCN1C(=O)[C@@H](N)Cc1ccc(O)cc1)c1ccccc1)c1ccccc1", "pEC50": 7.35}
{"chemicalString": "C=C(C(N)=O)[C@@H](NC(=O)[C@H](Cc1c[nH]c2ccccc12)NC(=O)[C@@H]1CCCN1C(=O)[C@@H](N)Cc1ccc(O)cc1)c1ccccc1Cl", "pEC50": 9.08}

====

Overview of reported pKi across a group of compounds:
target: Delta-type opioid receptor (Homo sapiens, UniProt P41143); experiment: Displacement of [3H]DPDPE from Myc-tagged delta opioid receptor expressed in HEK293 cells after 60 mins by liquid scintillation counter
Sequence (P41143 whole entry): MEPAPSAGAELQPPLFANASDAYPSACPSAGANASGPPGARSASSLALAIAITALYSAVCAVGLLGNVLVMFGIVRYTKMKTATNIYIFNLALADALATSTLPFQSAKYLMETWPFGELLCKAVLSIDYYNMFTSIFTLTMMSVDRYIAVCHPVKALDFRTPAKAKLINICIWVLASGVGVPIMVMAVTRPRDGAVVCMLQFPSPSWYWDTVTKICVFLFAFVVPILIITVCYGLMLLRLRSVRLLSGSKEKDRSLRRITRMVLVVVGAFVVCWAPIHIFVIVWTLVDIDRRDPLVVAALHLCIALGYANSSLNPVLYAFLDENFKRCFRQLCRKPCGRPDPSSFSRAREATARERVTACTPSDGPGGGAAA
pKi: −log10 of the molar value.
measurementKind: pKi

{"chemicalString": "C=C(C(N)=O)[C@@H](NC(=O)[C@H](Cc1c[nH]c2ccccc12)NC(=O)[C@@H]1CCCN1C(=O)[C@@H](N)Cc1ccc(O)cc1)c1ccc2c(c1)OCO2", "measurementKind": "pKi", "reportedMeasurement": 4.73}
{"chemicalString": "C=C(C(N)=O)[C@@H](NC(=O)[C@H](Cc1c[nH]c2ccccc12)NC(=O)[C@@H]1CCCN1C(=O)[C@@H](N)Cc1ccc(O)cc1)c1ccccc1Cl", "measurementKind": "pKi", "reportedMeasurement": 4.83}
{"chemicalString": "C=C(C(N)=O)[C@@H](NC(=O)[C@H](Cc1c[nH]c2ccccc12)NC(=O)[C@@H]1CCCN1C(=O)[C@@H](N)Cc1ccc(O)cc1)c1ccccc1", "measurementKind": "pKi", "reportedMeasurement": 4.25}

====

target: Mu-type opioid receptor (Homo sapiens, UniProt P35372); assay: Agonist activity at mu opioid receptor expressed in HEK293 cells assessed as inhibition of forskolin-induced cAMP accumulation after 30 mins by liquid scintillation counter relative to control; assay type: functional, cell-based
Below, each entry is listed alongside its reported Emax.
measurementKind: Emax (%)

{"chemicalString": "C=C(C(N)=O)[C@@H](NC(=O)[C@H](Cc1c[nH]c2ccccc12)NC(=O)[C@@H]1CCCN1C(=O)[C@@H](N)Cc1ccc(O)cc1)c1ccc(F)cc1", "subjectOfTest": "Mu-type opioid receptor (Homo sapiens, UniProt P35372)", "measurementKind": "Emax", "reportedMeasurement": 81.5}
{"chemicalString": "NC(=O)[C@H](Cc1ccccc1)NC(=O)[C@H](Cc1ccccc1)NC(=O)[C@@H]1CCCN1C(=O)[C@@H](N)Cc1ccc(O)cc1", "subjectOfTest": "Mu-type opioid receptor (Homo sapiens, UniProt P35372)", "measurementKind": "Emax", "reportedMeasurement": 82.8}
{"chemicalString": "C=C(C(N)=O)[C@@H](NC(=O)[C@H](Cc1c[nH]c2ccccc12)NC(=O)[C@@H]1CCCN1C(=O)[C@@H](N)Cc1ccc(O)cc1)c1cccc2ccccc12", "subjectOfTest": "Mu-type opioid receptor (Homo sapiens, UniProt P35372)", "measurementKind": "Emax", "reportedMeasurement": 71}
{"chemicalString": "C=C(C(N)=O)[C@@H](NC(=O)[C@H](Cc1c[nH]c2ccccc12)NC(=O)[C@@H]1CCCN1C(=O)[C@@H](N)Cc1ccc(O)cc1)c1ccco1", "subjectOfTest": "Mu-type opioid receptor (Homo sapiens, UniProt P35372)", "measurementKind": "Emax", "reportedMeasurement": 97.1}
{"chemicalString": "C=C(C(N)=O)[C@@H](NC(=O)[C@H](Cc1c[nH]c2ccccc12)NC(=O)[C@@H]1CCCN1C(=O)[C@@H](N)Cc1ccc(O)cc1)c1ccoc1", "subjectOfTest": "Mu-type opioid receptor (Homo sapiens, UniProt P35372)", "measurementKind": "Emax", "reportedMeasurement": 98.7}
